Reported pIC50 is given for each of the following binders.
# Study target: T1, CD47 on the surface of CD47+ cells (human, UniProt Q08722 19-323)
# T1 construct: whole, on cells; also called CD47+ cell lines; CD47 on Raji cells, HCT-15 cells, human red blood cells (RBCs), human platelets
# Experiment notes: flow cytometry, competition with SIRPA-mIgG2a on CD47+ tumor cells; IC50 as grade, legend the 8th table, row 26
pIC50: −log10 of the molar value.

R.19H7 (antibody, human IgG1, kappa, V domains shown, Chimeric: rabbit variable domains, human IgG1 and human kappa constant regions) VH: QEQLKESGGGLVTPGGTLTLTCTASGFTISSYHMCWVRQAPGKGLEWIGCIYPNNDFTWYATWAKGRFTISKTSSTTVDLRMTTPTTEETATYFCARASGNAYNLLDLWGQGTLVTVSS VL: AIVMTQTPASVSVAVGGSVTINCQSSESVYRDNCLGWFQQKPGQPPKLLIYRASTLASGVPSRFKGSGSGTQFTLTISDVVSDDAATYYCAGYKSTITDGTAFGGGTEVVVKR	8.30 to 9.00

# context switch: different binder, same pIC50
For the binder M.69H1H9 (antibody, human IgG1, kappa, V domains shown, Chimeric: mouse variable domains, human IgG1 and human kappa constant regions) VH: EVQLQQSGPELVKPGASVKMSCKTSGYTFTEYTIHWVKQSHEKSLEWIGSINPNNGLFRYNQKFKGKATLTVDKSSSTAYMELRSLTSEDSAVYYCARDYGFGYSDYWGQGTTLTVSS VL: DIQMIQSPSSMFASLGDRVSLSCRASQGIRGNLDWYQQKPGGTIKLLIYSTSNLNSGVPSRFSGSGSGSDYSLTISSLESEDFADYYCLQRNAFPWTFGGGTKLEIKR , what pIC50 is on record?
9.00 to 10.00
